tested on: Wolbachia pipientis; experiment: Anti-Wolbachia Cell-Based Screen; assay type: functional; set-up: scale not given: in the data most compounds retested in dose-response had high values; settings: 5 µM
Screen size: about 48,000 compounds; about 13,000 (27%) showed an effect of 50% or more. Some of the results follow.

Molecule: Cc1cnn(CC2CN(CCS(=O)(=O)C(F)(F)F)CCO2)c1 (stereo not drawn)
Unit Info: %
Percent Effect: -38.13
--
Molecule: O=C(c1ccc2nccn2c1)N1CCC(CCn2cccn2)CC1
Unit Info: %
Percent Effect: -0.54
--
Molecule: Cc1cnn(CC2CN(Cc3nc(-c4ccoc4)no3)CCO2)c1 (stereo not drawn)
Unit Info: %
Percent Effect: -0.2172
--
Molecule: Cc1ccccc1OCC(O)CN1CCC(Cn2cccn2)CC1 (stereo not drawn)
Unit Info: %
Percent Effect: 111.1
--
Molecule: COCCN(Cc1ccoc1)C(=O)CSc1ccc(F)cc1
Unit Info: %
Percent Effect: 117.6
--
Molecule: COCCc1noc(CN2CCOC(Cn3cc(C)cn3)C2)n1 (stereo not drawn)
Unit Info: %
Percent Effect: 92.63
--
Molecule: COc1ccccc1OCCCc1cccc(C#N)n1
Unit Info: %
Percent Effect: -3.599
--
Molecule: CN(C)C(C(=O)NCC1(C)COC1)c1cccc(F)c1 (stereo not drawn)
Unit Info: %
Percent Effect: 3.319
--
Molecule: Cc1cnn(CC2CCN(CC(O)c3ccccc3F)CC2)c1 (stereo not drawn)
Unit Info: %
Percent Effect: -4.357
--
Molecule: O=C(C1CCCc2[nH]ncc21)N1CCCCCC1 (stereo not drawn)
Unit Info: %
Percent Effect: 7.18
--
Molecule: NC(=O)CCN(C(=O)CSc1ccc(F)cc1)c1ccc(F)cc1
Unit Info: %
Percent Effect: -8.487
--
Molecule: Cc1ccc(NC(=O)N2CC[C@@H](O)C2)c(-c2nc(C3CC3)no2)c1
Unit Info: %
Percent Effect: 101.9
--
Molecule: CCCn1[nH]cc/c1=N\C(=O)CN1CCC[C@H]1CO
Unit Info: %
Percent Effect: 0.9827
--
Molecule: c1csc(-c2noc(COCC3CCCO3)n2)c1 (stereo not drawn)
Unit Info: %
Percent Effect: 0.9659
--
Molecule: Cc1cnn(CC2CCN(CC(O)CN3CCC(C)CC3)CC2)c1 (stereo not drawn)
Unit Info: %
Percent Effect: 0.7757
--
Molecule: COCC(=O)Nc1ccc(C)cc1-c1nc(C2CC2)no1
Unit Info: %
Percent Effect: 104.3
--
Molecule: Cc1cnn(CC2CN(Cc3nccn3C)CCO2)c1 (stereo not drawn)
Unit Info: %
Percent Effect: -4.713
--
Molecule: CNC(=O)Cc1csc(NC(=O)C2CSCCC(=O)N2)n1 (stereo not drawn)
Unit Info: %
Percent Effect: 9.778
--
Molecule: OC1(CNc2ccc(Br)cn2)CCSCC1
Unit Info: %
Percent Effect: 5.842
--
Molecule: Cc1cnn(CC2CCN(CC(O)c3ccccc3Cl)CC2)c1 (stereo not drawn)
Unit Info: %
Percent Effect: -9.107
--
Molecule: Cc1ncc2c(n1)CN(CC(O)COc1ccc(C#N)cc1)CC2 (stereo not drawn)
Unit Info: %
Percent Effect: -6.644
--
Molecule: CN1CCN(Cc2cnc3n2CCN(C(=O)c2ccccn2)C3)CC1
Unit Info: %
Percent Effect: -0.6061
--
Molecule: CN(Cc1ccoc1)C(=O)C1(Oc2ccc(Cl)cc2)CCNCC1
Unit Info: %
Percent Effect: 7.031

Each recorded value in this set is attributed to ChEMBL document CHEMBL3988442.
